# test_details: AUC in monkey at 2.5 mg/kg, po
# Format: ADME, organism-based, Macaca mulatta
# Parameters: dose 2.5 mg/kg, route oral
# measurement_parameters: rhesus monkey, plasma
readout_label: AUC (ng·h/mL)
Write it as a number; the unit ng·h/mL goes unstated.

COC(=O)N[C@H](C(=O)N1CCC[C@H]1C(=O)Nc1ccc([C@H]2CC[C@H](c3ccc(NC(=O)[C@@H]4CCCN4C(=O)[C@@H](NC(=O)OC)C(C)(C)C)cc3)N2c2ccc(F)cc2)cc1)C(C)(C)C; 490
COC(=O)N[C@H](C(=O)N1CCC[C@H]1C(=O)Nc1ccc([C@@H]2CC[C@@H](c3ccc(NC(=O)[C@@H]4CCCN4C(=O)[C@@H](NC(=O)OC)C(C)C)cc3)N2c2ccc(C(C)(C)C)cc2)cc1)C(C)C; 2400

Pending molecule:
# return recorded AUC for entry COC(=O)N[C@H](C(=O)N1CCC[C@H]1C(=O)Nc1ccc([C@H]2CC[C@H](c3ccc(NC(=O)[C@@H]4CCCN4C(=O)[C@@H](NC(=O)OC)C(C)C)cc3)N2c2ccc(F)cc2)cc1)C(C)C
80
